- RUN DESCRIPTION: Plasma pharmacokinetics of FdCyd, metabolites and THU in cynomolgus monkeys
- CONDITION SUMMARY: both, cynomolgus monkey, plasma, po, 10 mg/kg, F (PO bioavailability), analyte FdCyd; FdCyd 10 mg/kg PO 1 h after THU 500 mg/kg PO; relative to 4, 8, and 16 mg/kg FdCyd IV with 30 mg/kg THU
EXPERIMENTAL ENDPOINT: bioavailability (%)
Numbers only, in %.

What measured bioavailability goes with Nc1nc(=O)n([C@H]2C[C@H](O)[C@@H](CO)O2)cc1F ?
25

----------
- RUN DESCRIPTION: Plasma pharmacokinetics of FdCyd, metabolites and THU in cynomolgus monkeys
- CONDITION SUMMARY: both, cynomolgus monkey, plasma, po, 1 mg/kg, Tmax for FdCyd (mean), monkeys; FdCyd 1 mg/kg PO 1 h after 500 mg/kg THU PO
EXPERIMENTAL ENDPOINT: Tmax
Provide the measurement as a number trailed by its unit.

What measured Tmax goes with Nc1nc(=O)n([C@H]2C[C@H](O)[C@@H](CO)O2)cc1F [FdCyd, 5-fluoro-2’-deoxycytidine] ?
30 min

Sourced from paper PMC4573928
